The origin of these recorded values is patent US20240199647A1.

CC50 at 6 days values for the molecules below.
Assay: Cytotoxicity in HeLa cells without addition of OC43 virus (in parallel)
Conditions: human, HeLa cells, without OC43 virus

molecule	CC50 at 6 days
CN(C(=O)[C@H](CC(F)(F)F)NC(=O)C(F)(F)F)[C@@H](CC1CC1)C(=O)N1C[C@@]2(C[C@H]1C#N)Oc1cccnc1NC2=O [Compound 189]	> 10 µM
CN(C(=O)[C@H](COC(C)(C)C)NC(=O)C(F)(F)F)[C@@H](CC1CC1)C(=O)N1C[C@@]2(C[C@H]1C#N)Oc1cccnc1NC2=O [Compound 190]	> 10 µM

API: the following record is the query input.
Q. Value lookup for CC50 at 6 days; key = CC[C@H](NC(=O)C(F)(F)F)C(=O)N(C)[C@@H](CC1CC1)C(=O)N1C[C@@]2(C[C@H]1C#N)Oc1cc(F)cc(F)c1NC2=O [Compound 88]
A. > 10 µM

* * *

pEC50 values for the compounds below.
Tested on: SARS-CoV-2 B.1.1.7 lineage
Test: microbe, parasite or virus in culture
Format: cell-based
Settings: Severe acute respiratory syndrome coronavirus 2; Table C; SARS-CoV-2 B.1.1.7 in A549-dual_ACE2_TMPRSS2 cells, class symbols; read-out: A549-dual_ACE2_TMPRSS2 (EC50)
pEC50: −log10 of the molar value.

// worked examples, pEC50 included
compound	pEC50
CN(C(=O)[C@H](CC1CC1)NC(=O)C(F)(F)F)[C@@H](CC1CC1)C(=O)N1C[C@@]2(C[C@H]1C#N)Oc1cc(F)cc(F)c1CNC2=O	> 7.00
CC(C)C[C@@H](C(=O)N1C[C@@]2(C[C@H]1C#N)N=C(C(C)(C)C)NC2=O)N(C)C(=O)[C@H](C)NC(=O)C(F)(F)F	6.00 to 7.00
C[C@H](NC(=O)C(F)(F)F)C(=O)N(C)[C@@H](CC1CC1)C(=O)N1C[C@@]2(C[C@H]1C#N)Oc1cc(F)cnc1NC2=O	6.00 to 7.00
CN(C(=O)[C@H](CC1CC1)NC(=O)C(F)(F)F)[C@@H](CC1CC1)C(=O)N1C[C@@]2(C[C@H]1C#N)Oc1cccnc1CNC2=O	6.00 to 7.00
COC(=O)N[C@@H](C)C(=O)N(C)[C@@H](CC(C)C)C(=O)N1C[C@@]2(C[C@H]1C#N)Oc1cc(F)cc(F)c1NC2=O	6.00 to 7.00
CN(C(=O)[C@@H](Cc1ccc(F)cc1)NC(=O)C(F)(F)F)[C@@H](CC1CC1)C(=O)N1C[C@@]2(C[C@H]1C#N)Oc1cc(F)cc(F)c1NC2=O	> 7.00

Q. Value lookup for pEC50; key = CN(C(=O)[C@H](CC1CC1)n1cc(C(F)(F)F)nn1)[C@@H](CC1CC1)C(=O)N1C[C@@]2(C[C@H]1C#N)Oc1cc(F)cc(F)c1NC2=O
A. > 7.00

Q. For COC(=O)N[C@@H](C)C(=O)N(C)[C@@H](CC1CC1)C(=O)N1C[C@@]2(C[C@H]1C#N)Oc1cccnc1NC2=O then?
A. 6.00 to 7.00

Q. For CC1NC(=O)[C@]2(C[C@@H](C#N)N(C(=O)[C@H](CC3CC3)N(C)C(=O)[C@H](CC3CC3)NC(=O)C(F)(F)F)C2)Oc2ccccc21 (some centres unmarked) then?
A. > 7.00

Q. For CN1C(=O)[C@]2(C[C@@H](C#N)N(C(=O)[C@H](CC3CC3)N(C)C(=O)[C@H](CC3CC3)NC(=O)C(F)(F)F)C2)Oc2cc(F)cc(F)c21 then?
A. > 7.00

Q. For CN(C(=O)[C@H](CC1CC1)NC(=O)C(F)(F)F)[C@@H](CC1CC1)C(=O)N1C[C@]2(C[C@H]1C#N)C(=O)NCc1ccccc12 (single isomer, unassigned) then?
A. > 7.00

Q. For CC(C)C[C@@H](C(=O)N1C[C@@]2(C[C@H]1C#N)Oc1cc(F)cc(F)c1NC2=O)N(C)C(=O)[C@H](Cc1ccc(F)cc1)NC(=O)C(F)(F)F then?
A. 6.00 to 7.00

* * *

EC50 values for the compounds below.
Tested on: SARS-CoV-2 B.1.1.7 lineage
Assay: microbe, parasite or virus in culture
Format: cell-based
Details: Severe acute respiratory syndrome coronavirus 2; Table C; SARS-CoV-2 B.1.1.7 in A549-dual_ACE2_TMPRSS2 cells, cells given as a bound; read-out: A549-dual_ACE2_TMPRSS2 (EC50)

smiles notation	EC50
CN(C(=O)c1cnc(C(F)(F)F)[nH]1)[C@@H](CC1CC1)C(=O)N1C[C@@]2(C[C@H]1C#N)Oc1cc(F)cc(F)c1NC2=O	> 1000 nM
C[C@H](NC(=O)C(F)(F)F)C(=O)N(C)[C@H](C(=O)N1C[C@@]2(C[C@H]1C#N)Oc1cc(F)cc(F)c1NC2=O)[C@@H](C)OC(C)(C)C	> 1000 nM
CN(C(=O)C(=O)Nc1ccc(F)cc1)[C@@H](CC1CC1)C(=O)N1C[C@@]2(C[C@H]1C#N)Oc1cccnc1NC2=O	> 1000 nM
COc1cccc2[nH]c(C(=O)N(C)[C@@H](CC3CC3)C(=O)N3C[C@@]4(C[C@H]3C#N)Oc3cc(F)cc(F)c3NC4=O)cc12	> 1000 nM

API: the following record is the query input.
Q. Value lookup for EC50; key = C[C@H](NC(=O)Oc1ccc(F)cc1)C(=O)N(C)[C@@H](CC1CC1)C(=O)N1C[C@@]2(C[C@H]1C#N)Oc1cc(F)cc(F)c1NC2=O
A. > 1000 nM

* * *

CC50 at 6 days values for the compounds below.
Assay: Cytotoxicity in HeLa cells without addition of OC43 virus (in parallel)
Details: human, HeLa cells, without OC43 virus

// worked examples, CC50 at 6 days included
smiles notation	CC50 at 6 days
CN(C(=O)c1cc2cccc(Cl)c2[nH]1)[C@@H](CC1CC1)C(=O)N1C[C@@]2(C[C@H]1C#N)Oc1cc(F)cc(F)c1NC2=O	> 10 µM
CN(C(=O)[C@H](CC1CC1)NC(=O)C(F)(F)F)[C@@H](CC1CC1)C(=O)N1C[C@@]2(C[C@H]1C#N)Oc1cc(C(=O)N3CCOCC3)ccc1NC2=O	> 10 µM

API: the following record is the query input.
Q. Value lookup for CC50 at 6 days; key = CC(C)C[C@@H](C(=O)N1C[C@@]2(C[C@H]1C#N)Oc1ccccc1NC2=O)N(C)C(=O)c1cc2c(F)cc(F)cc2[nH]1
A. > 10 µM

* * *

EC50 values for the molecules below.
System: SARS-CoV-2 B.1.1.7 lineage
Test: microbe, parasite or virus in culture
Assay type: cell-based
Conditions: Severe acute respiratory syndrome coronavirus 2; Table C; SARS-CoV-2 B.1.1.7 in A549-dual_ACE2_TMPRSS2 cells, class symbols; read-out: A549-dual_ACE2_TMPRSS2 (EC50)

// worked examples, EC50 included
molecule	EC50
CN(C(=O)[C@@H]1CC[C@@H](c2ccccc2)N1C)[C@@H](CC1CC1)C(=O)N1C[C@@]2(C[C@H]1C#N)Oc1cc(F)cc(F)c1NC2=O	100 to 1000 nM
CN(C(=O)[C@H](CC1CC1)NC(=O)C(F)(F)F)[C@@H](CC1CC1)C(=O)N1C[C@@]2(C[C@H]1C#N)Oc1cc(F)cc(C#N)c1NC2=O (single isomer, unassigned)	100 to 1000 nM
CC(C)C[C@@H](C(=O)N1C[C@@]2(C[C@H]1C#N)Oc1ccccc1NC2=O)N(C)C(=O)[C@H](C)NC(=O)C(F)(F)F	< 100 nM
CN(C(=O)[C@H](CC1CC1)N1CCOC1=O)[C@@H](CC1CC1)C(=O)N1C[C@@]2(C[C@H]1C#N)Oc1cc(F)cc(F)c1NC2=O	100 to 1000 nM
C[C@H](OCc1ccccc1)[C@H](NC(=O)C(F)(F)F)C(=O)N(C)[C@@H](CC1CC1)C(=O)N1C[C@@]2(C[C@H]1C#N)Oc1cccnc1NC2=O	100 to 1000 nM
CN(C)C(=O)c1ccc2c(c1)O[C@@]1(C[C@@H](C#N)N(C(=O)[C@H](CC3CC3)N(C)C(=O)[C@H](CC3CC3)NC(=O)C(F)(F)F)C1)C(=O)N2	100 to 1000 nM
COc1ccc(Cl)c2[nH]c(C(=O)N(C)[C@@H](CC3CC3)C(=O)N3C[C@@]4(C[C@H]3C#N)Oc3cc(F)cc(F)c3NC4=O)cc12	100 to 1000 nM
CN(C(=O)[C@H](CC1CC1)NC(=O)C(F)(F)F)[C@@H](CC1CC1)C(=O)N1C[C@@]2(C[C@H]1C#N)Oc1c(F)cc(F)cc1CNC2=O	100 to 1000 nM
CN(C(=O)[C@H](COCc1ccccc1)NC(=O)C(F)(F)F)[C@@H](CC1CC1)C(=O)N1C[C@@]2(C[C@H]1C#N)Oc1cccnc1NC2=O	100 to 1000 nM
CCC1C[C@@]2(C[C@@H](C#N)N(C(=O)[C@H](CC(C)C)N(C)C(=O)[C@H](C)NC(=O)C(F)(F)F)C2)C(=O)N1 (some centres unmarked)	100 to 1000 nM

Q. Value lookup for EC50; key = CN(C(=O)[C@H](CC1CC1)NS(=O)(=O)C1CC1)[C@@H](CC1CC1)C(=O)N1C[C@@]2(C[C@H]1C#N)Oc1ccccc1CNC2=O
A. 100 to 1000 nM

Q. For CN(C(=O)[C@H](CC1CC1)NC(=O)C(F)(F)F)[C@@H](CC1CC1)C(=O)N1C[C@@]2(C[C@H]1C#N)Sc1ccccc1NC2=O then?
A. < 100 nM

Q. For [2H]C([2H])([2H])N(C(=O)[C@H](C)NC(=O)C(F)(F)F)[C@@H](CC(C)C)C(=O)N1C[C@@]2(C[C@H]1C#N)Oc1cc(F)cc(F)c1NC2=O then?
A. 100 to 1000 nM

Q. For CN(C(=O)[C@H](CC1CC1)NS(=O)(=O)C1CC1)[C@@H](CC1CC1)C(=O)N1C[C@@]2(C[C@H]1C#N)Oc1cccnc1NC2=O then?
A. 100 to 1000 nM

Q. For COC[C@H](NC(=O)C(F)(F)F)C(=O)N(C)[C@@H](CC(C)C)C(=O)N1C[C@@]2(C[C@H]1C#N)Oc1cc(F)cc(F)c1NC2=O then?
A. 100 to 1000 nM

Q. For CN(C(=O)[C@H](CC(C)(C)C)NC(=O)C(F)(F)F)[C@@H](CC1CC1)C(=O)N1C[C@@]2(C[C@H]1C#N)Oc1cccnc1NC2=O then?
A. < 100 nM

Q. For Cc1ccc2c(n1)NC(=O)[C@]1(C[C@@H](C#N)N(C(=O)[C@H](CC3CC3)N(C)C(=O)[C@H](C)NC(=O)C(F)(F)F)C1)O2 then?
A. 100 to 1000 nM

Q. For CN(C(=O)[C@H](CC1CC1)NC(=O)C(F)(F)F)[C@@H](CC1CC1)C(=O)N1C[C@@]2(C[C@H]1C#N)Oc1cccc(F)c1CNC2=O then?
A. 100 to 1000 nM

Q. For C[C@H](NC(=O)C(F)(F)F)C(=O)N(C)[C@@H](CC1CCC1)C(=O)N1C[C@@]2(C[C@H]1C#N)Oc1cccnc1NC2=O then?
A. < 100 nM

Q. For COC(=O)N[C@@H](CC1CC1)C(=O)N(C)[C@@H](CC1CC1)C(=O)N1C[C@@]2(C[C@H]1C#N)Oc1cc(F)cc(F)c1NC2=O then?
A. < 100 nM

Q. For CN(C(=O)[C@@H](CC1CCCCC1)NC(=O)C(F)(F)F)[C@@H](CC1CC1)C(=O)N1C[C@@]2(C[C@H]1C#N)Oc1cccnc1NC2=O then?
A. < 100 nM

Q. For CN(C(=O)[C@@H]1CC[C@@H](c2ccccc2)N1)[C@@H](CC1CC1)C(=O)N1C[C@@]2(C[C@H]1C#N)Oc1cc(F)cc(F)c1NC2=O then?
A. 100 to 1000 nM

Q. For CN(C(=O)[C@H](CC(F)(F)F)NC(=O)C(F)(F)F)[C@@H](CC1CC1)C(=O)N1C[C@@]2(C[C@H]1C#N)Oc1cccnc1NC2=O then?
A. 100 to 1000 nM
